# Experimental system: recombinant SARS-CoV-2 M^pro (Proteros) (SARS-CoV-2)
# Procedure details: FRET enzymatic inhibition assay
No end group written: not given here.
Reported property: Kd

Exercise: # return recorded Kd for input Ac-Gly-His-His-aldehyde (SMILES CC(=O)NCC(=O)N[C@@H](Cc1c[nH]cn1)C(=O)N[C@H](C=O)Cc1c[nH]cn1) [compound 5 (aldehydic tripeptide)]
Key: > 107 µM

Exercise: # return recorded Kd for input Pro-His-His-aldehyde [compound 9 (aldehydic tripeptide)]
Key: > 85 µM

Exercise: # return recorded Kd for input Ac-Gly-Tyr-His-aldehyde (SMILES CC(=O)NCC(=O)N[C@@H](Cc1ccc(O)cc1)C(=O)N[C@H](C=O)Cc1c[nH]cn1) [compound 8 (aldehydic tripeptide)]
Key: 98.9 µM

Exercise: # return recorded Kd for input Ac-Gly-His-Tyr-aldehyde (SMILES CC(=O)NCC(=O)N[C@@H](Cc1c[nH]cn1)C(=O)N[C@H](C=O)Cc1ccc(O)cc1) [compound 7 (aldehydic tripeptide)]
Key: > 213 µM
